B1: Twister Ribozyme (parent)
chain: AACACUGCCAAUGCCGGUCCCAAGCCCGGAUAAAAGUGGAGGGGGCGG

# Variants of: B1
# test: self-cleavage, relative activity (ratio to wild type); higher = more cleavage; co-transcriptional
Classification field: enter rule met for self-cleavage values not below 0.2, rule not met for values below it.

Illustrative cases are given below, each with its answer.
> print(dat)
   variant.key           cat
1    C15U G48U      rule met
2     A4U G36U  rule not met
3    U18C A35G  rule not met

Input: I'd appreciate it if you could say whether C19U A34C has self-cleavage at least equal to 0.2.
Output: rule not met

Input: Field entry: G13A C14G
Output: rule met

Input: Same for A1C A11G
Output: rule met
